Measured TGI values are reported for all entries that follow.
test system: SNB-75 CNS; assay: NCI tumour cell line growth inhibition, 48 h

>  <Molecule>
COC(=O)C1C(=O)O[C@@H](c2ccc(OC)cc2)C1C(=O)OC (some centres undefined)

>  <Target Desc>
SNB-75 CNS

>  <Unit Of Measure>
µM

>  <Result Comparator>
>

>  <TGI>
100

$$$$
>  <Molecule>
Fc1ccc(C2(CCCN3CCc4[nH]c5cc(F)ccc5c4C3)OCCO2)cc1

>  <Target Desc>
SNB-75 CNS

>  <Unit Of Measure>
µM

>  <Result Comparator>
=

>  <TGI>
25.1

$$$$
>  <Molecule>
CCS(=O)(=O)c1ccc(OC)c(Nc2ncc(-c3cccc(-c4ccccc4F)c3)o2)c1

>  <Target Desc>
SNB-75 CNS

>  <Unit Of Measure>
µM

>  <Result Comparator>
=

>  <TGI>
24.3

$$$$
>  <Molecule>
Cc1nc(NC(=O)COc2cccc(/C=C3\COc4ccccc4C3=O)c2)sc1C

>  <Target Desc>
SNB-75 CNS

>  <Unit Of Measure>
µM

>  <Result Comparator>
=

>  <TGI>
18.7

$$$$
>  <Molecule>
C=CC1(c2ccc(Cl)c(Cl)c2)OCCO1

>  <Target Desc>
SNB-75 CNS

>  <Unit Of Measure>
µM

>  <Result Comparator>
=

>  <TGI>
55.2

$$$$
>  <Molecule>
COc1ccc(C2=C(Br)C(=O)OC2)cc1Cl

>  <Target Desc>
SNB-75 CNS

>  <Unit Of Measure>
µM

>  <Result Comparator>
>

>  <TGI>
100

$$$$
>  <Molecule>
Cn1c2c(c3c(=O)[nH]ncc31)CCc1ccccc1-2

>  <Target Desc>
SNB-75 CNS

>  <Unit Of Measure>
µM

>  <Result Comparator>
=

>  <TGI>
87.8

$$$$
>  <Molecule>
CC(=O)c1cc2c3c(c1)c1cc4c(cc1c(=O)n3CC2)OCO4

>  <Target Desc>
SNB-75 CNS

>  <Unit Of Measure>
µM

>  <Result Comparator>
>

>  <TGI>
100

$$$$
>  <Molecule>
COC1OC(COCc2ccc(Cl)cc2)C(OCc2ccc(Cl)cc2)C1O (centres undefined)

>  <Target Desc>
SNB-75 CNS

>  <Unit Of Measure>
µM

>  <Result Comparator>
=

>  <TGI>
32.8

$$$$

src = PubChem BioAssay (NCI)
